Listed next: entries and their corresponding TA98 Cytotoxicity.
- System: Salmonella tiphimurium TA98
- Run Description: AMES test, TA98
- Experimental Context: value per plate; Addition of S9: no

Here is how some compounds turned out for TA98 Cytotoxicity.
Oc1cccc2ccc(C(F)(F)c3ccc4cccc(O)c4n3)nc12 ... >3000 µg
CC(C)(c1ccc2cccc(O)c2n1)c1ccc2cccc(O)c2n1 ... >3000 µg
c1cnc2c(Nc3cccc4cccnc34)cccc2c1 ... >3000 µg

Query: Item Oc1c(I)cc(Cl)c2cccnc12 [Clioquinol, reference compound] has what recorded TA98 Cytotoxicity?
Response: 300 µg

----------
- Target: copper complexes of Aβ1-42 peptide (Homo sapiens)
- Construct: The β-amyloid peptide Aβ1-42 (Aβ1-42) was synthesised, purified (to a purity greater than 95%); made in house; host or cells: chemical peptide synthesis (no expression host)
- Sequence (P05067 672-713 limits assumed, one chain of several): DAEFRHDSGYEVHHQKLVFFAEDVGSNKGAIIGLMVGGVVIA
- Run Description: Hydrogen peroxide produced by Aβ1-42 in the presence of CuCl2, ascorbate, air and ligand (Amplex Red H2O2/HRP)
- Format: biochemical
- Experimental Context: ligand 1 eq/Cu(II) (0.4 μM); CuCl2 0.4 μM, ascorbate 10 μM, air
Listed next: entries and their corresponding amount of H2O2, 0.2 μM Aβ1-42 Cu/Aβ = 2.
The response must be a number in nmol with no trailing unit.

O=C(Nc1ccc2cccc(O)c2n1)c1ccc2cccc(O)c2n1 [Compound 18] ... 0.47
O=C(Nc1cccc2cccnc12)c1cccc2cccnc12 [Compound 24, N-8-quinolinyl-8-quinoline carboxamide] ... 0.62
Oc1cccc2ccc(C(F)(F)c3ccc4cccc(O)c4n3)nc12 [Compound 5] ... 0.55

Query: Item O=C(c1ccc2cccc(O)c2n1)c1ccc2cccc(O)c2n1 [Compound 6, Bis(8-hydroxy-2-quinoline)methanone] has what recorded amount of H2O2, 0.2 μM Aβ1-42 Cu/Aβ = 2?
Response: 0.86
